# Measurement Notes: Growth inhibition of human A375-C5 cells after 48 hrs by sulforhodamine B assay
# Assay type: functional
# Details: A375-C5, 48 h
Endpoint: GI50 (µM)
Give your result in µM as a bare value.

CC(C)=CCC/C(C)=C/COc1ccc2c(=O)c(OC/C=C(\C)CCC=C(C)C)c(-c3ccccc3)oc2c1 : 58.5

Task item: Endpoint output: GI50 of CC1(C)CCc2c(ccc3c(=O)c(O)c(-c4ccccc4)oc23)O1 . Value?
Reply: 2.3

Task item: Then what about the compound O=c1cc(-c2ccccc2)oc2cc(O)c(O)c(O)c12 ?
Reply: 7.7

Task item: Then what about the compound O=c1c(O)c(-c2ccccc2)oc2cc(O)ccc12 [3,7-DIHYDROXYFLAVONE] ?
Reply: 23

Task item: Then what about the compound CC(C)=CCOc1ccc2c(=O)c(OCC=C(C)C)c(-c3ccccc3)oc2c1 ?
Reply: 59

====

# System: NCI-H460
# Measurement Notes: Growth inhibition of human NCI-H460 cells after 48 hrs by sulforhodamine B assay
# Assay type: functional
# Details: NCI-H460, 48 h
Endpoint: GI50 (µM)
Give your result in µM as a bare value.

CC1(C)CCc2c(ccc3c(=O)c(O)c(-c4ccccc4)oc23)O1 : 2.7
CC1Oc2ccc3c(=O)c(O)c(-c4ccccc4)oc3c2C1(C)C (stereo not given) : 3.9
CC(C)=CCOc1cc2oc(-c3ccccc3)cc(=O)c2c(O)c1O : 6.8

Field: next compound
Task item: Endpoint output: GI50 of CC(C)=CCC/C(C)=C/COc1ccc2c(=O)c(OC/C=C(\C)CCC=C(C)C)c(-c3ccccc3)oc2c1 . Value?
Reply: 55

====

Each entry below carries its reported GI50.
# Measurement Notes: Growth inhibition of human A375-C5 cells after 48 hrs by sulforhodamine B assay
# Format: functional
# Details: A375-C5, 48 h

CC(C)=CCOc1cc2oc(-c3ccccc3)cc(=O)c2c(O)c1OCC=C(C)C : > 150 µM
CC(C)=CCOc1c(OCC=C(C)C)c(O)c2c(=O)cc(-c3ccccc3)oc2c1CC=C(C)C : > 150 µM

Field: next compound
Task item: Endpoint output: GI50 of CC(C)=CCC/C(C)=C/COc1cc2oc(-c3ccccc3)cc(=O)c2c(O)c1OC/C=C(\C)CCC=C(C)C . Value?
Reply: > 150 µM

====

# Test system: NCI-H460
# Measurement Notes: Growth inhibition of human NCI-H460 cells after 48 hrs by sulforhodamine B assay
# Assay type: functional
# Details: NCI-H460, 48 h
Endpoint: GI50

Worked cases, GI50 given:
CC(C)=CCOc1c(OCC=C(C)C)c(O)c2c(=O)cc(-c3ccccc3)oc2c1CC=C(C)C : > 150 µM
CC(C)=CCC/C(C)=C/COc1c(OC/C=C(\C)CCC=C(C)C)c(O)c2c(=O)cc(-c3ccccc3)oc2c1C/C=C(\C)CCC=C(C)C : > 150 µM

Field: next molecule
Task item: Endpoint output: GI50 of CC(C)=CCC/C(C)=C/COc1cc2oc(-c3ccccc3)cc(=O)c2c(O)c1OC/C=C(\C)CCC=C(C)C . Value?
Reply: > 150 µM
